Molecular target: RIPK1 (receptor-interacting serine/threonine-protein kinase 1) (Homo sapiens (Human))
Experiment: RIPK1 inhibitory activity, autophosphorylation of immuno-precipitated RIPK1 with [32P]γ-ATP
Type: biochemical
Conditions: compound 100 μM; remaining RIPK1 phosphorylation
Measurement kind: activity at 100 µM
Reply with the number, then its unit.

COS(=O)c1ccc(-c2cccc3sc(C(=O)N4CCOCC4)cc23)cc1 (centres unmarked) [Example 64]; 83.6%
Nc1cccc(-c2cccc3sc(C(=O)N4CCOCC4)cc23)c1 [Example 42]; 35.5%

What value of activity at 100 µM has been reported for the following compound? O=C(c1cc2c(Oc3ccc(F)cc3)cccc2s1)N1CCOCC1 [Example 59] 21%

What value of activity at 100 µM has been reported for the following compound? O=C(c1cc2c(-c3cccc(F)c3)cccc2s1)N1CCOCC1 [Example 36] 4%

What value of activity at 100 µM has been reported for the following compound? O=C(c1cc2c(-c3cccc(-c4ccccc4)c3)cccc2s1)N1CCOCC1 [Example 41] 84.7%

What value of activity at 100 µM has been reported for the following compound? O=C(c1cc2c(-c3ccc(F)cc3)cccc2s1)N1CCOCC1 [Example 39] 3.7%

What value of activity at 100 µM has been reported for the following compound? O=C(c1cc2c(CCc3ccc(F)cc3)cccc2s1)N1CCOCC1 [Example 60] 22%

What value of activity at 100 µM has been reported for the following compound? O=C(c1cc2c(-c3ccoc3)cccc2s1)N1CCOCC1 [Example 75] 3.5%

---

Target: RIPK1 (receptor-interacting serine/threonine-protein kinase 1) (Homo sapiens (Human))
Test: RIPK1 inhibitory activity, autophosphorylation of immuno-precipitated RIPK1 with [32P]γ-ATP
Type: biochemical
Details: compound 100 μM; remaining RIPK1 phosphorylation
Measurement kind: activity at 100 µM
Reply with the number, then its unit.

Completed entries (count: 3):
O=C(c1cc2c(Cc3cccc(F)c3)cccc2s1)N1CCOCC1; 54.5%
Cc1ccc2cc(C(=O)N3CCOCC3)sc2c1C; 76.5%
O=C(c1nc2cc(Br)ccc2[nH]1)N1CCOCC1; 62%

What value of activity at 100 µM has been reported for the following compound? "Cc1ccc2cc(C(=O)N3CCOCC3)oc2c1" 86%

What value of activity at 100 µM has been reported for the following compound? "COc1ccc2cc(C(=O)N3CCOCC3)sc2c1" 81%

What value of activity at 100 µM has been reported for the following compound? "O=C(c1cc2c(-c3ccc(F)cc3)cccc2s1)N1CCCC1" 3.5%

What value of activity at 100 µM has been reported for the following compound? "O=C(c1cc2c(-c3ccc(Br)cc3)cccc2s1)N1CCOCC1" 54.5%

What value of activity at 100 µM has been reported for the following compound? "Cn1cc(-c2cccc3sc(C(=O)N4CCOCC4)cc23)cn1" 22%

What value of activity at 100 µM has been reported for the following compound? "O=C(c1cc2c(-c3cccs3)cccc2s1)N1CCOCC1" 4%

What value of activity at 100 µM has been reported for the following compound? "O=C(c1cc2ccccc2o1)N1CCOCC1" 85.6%

---

Target: RIPK1 (receptor-interacting serine/threonine-protein kinase 1) (Homo sapiens (Human))
Experiment: IC50 to RIPK1, immuno-precipitated enzyme with [32P]γ-ATP
Settings: 10-0.05 μM, 100 μM ATP
Measurement kind: IC50 (nM)
Record the value in nM, omitting the unit from your answer.

Completed entries (count: 6):
O=C(c1cc2c(-c3ccsc3)cccc2s1)N1CCOCC1; 61.2
O=C(c1cc2c(-c3ccc(F)cc3)cccc2s1)N1CCCC1; 360
O=C(c1cc2c(-c3ccc(F)cc3)cccc2s1)N1CCOCC1; 193
O=C(c1cc2c(-c3ccoc3)cccc2s1)N1CCOCC1; 73.4
O=C(c1cc2c(-c3ccc(F)cc3F)cccc2s1)N1CCOCC1; 230
O=C(c1cc2c(-c3cccs3)cccc2s1)N1CCOCC1; 65.6

Could you now look at the following compound, please?
What value of IC50 has been reported for the following compound? "O=C(c1cc2c(-c3ccc(F)cc3)cccc2s1)N1CCCOCC1" 8170

---

Biological target: RIPK1 (receptor-interacting serine/threonine-protein kinase 1) (Homo sapiens (Human), UniProt Q13546)
Sequence (Q13546 whole entry, species assumed): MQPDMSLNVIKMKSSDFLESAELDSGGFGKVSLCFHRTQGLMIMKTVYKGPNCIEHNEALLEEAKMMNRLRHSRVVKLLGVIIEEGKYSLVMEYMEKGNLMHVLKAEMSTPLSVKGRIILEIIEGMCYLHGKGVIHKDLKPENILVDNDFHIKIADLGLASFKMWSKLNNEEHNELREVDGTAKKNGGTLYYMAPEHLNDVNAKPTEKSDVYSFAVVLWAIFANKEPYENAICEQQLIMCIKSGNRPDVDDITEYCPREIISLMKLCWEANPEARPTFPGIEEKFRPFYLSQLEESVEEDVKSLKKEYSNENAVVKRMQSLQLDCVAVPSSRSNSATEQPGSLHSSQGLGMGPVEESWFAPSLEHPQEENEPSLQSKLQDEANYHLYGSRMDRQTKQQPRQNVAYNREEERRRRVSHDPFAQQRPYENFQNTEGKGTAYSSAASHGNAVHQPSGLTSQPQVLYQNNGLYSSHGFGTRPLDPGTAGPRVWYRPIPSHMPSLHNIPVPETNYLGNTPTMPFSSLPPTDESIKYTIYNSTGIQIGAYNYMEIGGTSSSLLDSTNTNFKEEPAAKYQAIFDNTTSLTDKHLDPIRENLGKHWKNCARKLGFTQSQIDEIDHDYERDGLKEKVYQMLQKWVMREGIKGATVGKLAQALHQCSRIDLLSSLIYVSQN
Test: RIPK1 inhibitory activity, autophosphorylation of immuno-precipitated RIPK1 with [32P]γ-ATP
Format: biochemical
Conditions: compound 100 μM; remaining RIPK1 phosphorylation
Category scheme (activity at 100 µM): lo: < 40%; mid: ≥ 40% and < 60%; hi: ≥ 60%

Cc1cc(C)c2cc(C(=O)N3CCOCC3)sc2c1 [Example 17]; hi
O=C(c1cc2c(Br)cncc2s1)N1CCOCC1 [Example 3]; mid
O=C(c1cc2c(-c3ccc(F)cc3)cncc2s1)N1CCOCC1 [Example 2]; mid
O=C(c1cc2c(-c3ccc(F)cc3F)cccc2s1)N1CCOCC1 [Example 63]; lo
O=C(c1cc2c(-c3ccsc3)cccc2s1)N1CCOCC1 [Example 76]; lo
Cl.O=C(c1cc2c(-c3ccc(F)cc3)cccc2s1)N1CCNCC1 [Example 38, hydrochloride]; hi
COc1ccc(-c2cccc3sc(C(=O)N4CCOCC4)cc23)cn1 [Example 55]; mid
O=C(c1cc2c(Cc3ccc(F)cc3F)cccc2s1)N1CCOCC1 [Example 57]; lo

Category of O=C(c1cc2c(Cc3ccc(F)cc3)cccc2s1)N1CCOCC1 [Example 67] , please. mid

Category of O=C(c1cc2cccc(-c3ccc(F)cc3)c2s1)N1CCOCC1 [Example 65] , please. hi

Category of O=C(c1cc2c(-c3ccc(O)cc3)cccc2s1)N1CCOCC1 [Example 44] , please. lo

Category of O=C(c1cc2c(NS(=O)(=O)c3ccc(F)cc3)cccc2s1)N1CCOCC1 [Example 70] , please. hi

Category of O=C(c1cc2c(-c3ccc(-c4ccccc4)cc3)cccc2s1)N1CCOCC1 [Example 31] , please. hi

Category of CN1CCN(C(=O)c2cc3c(-c4ccc(F)cc4)cccc3s2)CC1.Cl [Example 49, hydrochloride] , please. lo

Category of O=C(c1cc2c(-c3ccc(F)cc3)cnc(Cl)c2s1)N1CCOCC1 [Example 5] , please. hi

Category of COc1ccc2[nH]c(C(=O)N3CCOCC3)cc2c1 [Example 22] , please. mid

Category of COc1ccc2[nH]c(C(=O)N3CCOCC3)nc2c1 [Example 24] , please. mid

Category of Cl.NC1CCN(C(=O)c2cc3c(-c4ccc(F)cc4)cccc3s2)CC1 [Example 37, hydrochloride] , please. lo

---

Biological target: RIPK1 (receptor-interacting serine/threonine-protein kinase 1) (Homo sapiens (Human), UniProt Q13546)
Assay: RIPK1 inhibitory activity, autophosphorylation of immuno-precipitated RIPK1 with [32P]γ-ATP
Format: biochemical
Conditions: compound 100 μM; remaining RIPK1 phosphorylation
Strictly below 50% in activity at 100 µM: condition met. Otherwise: condition not met.

These solved cases illustrate the format of a correct answer.
O=C(c1cc2c(OCc3ccc(F)cc3)cccc2s1)N1CCOCC1; condition met
Cl.O=C(c1cc2c(-c3ccc(F)nc3)cccc2s1)N1CCOCC1 [Example 66, hydrochloride]; condition met
O=C(c1cc2c(-c3ccc(F)cc3)ccnc2s1)N1CCOCC1; condition met

Is the reported activity at 100 µM for "Cc1ccc2[nH]c(C(=O)N3CCOCC3)nc2c1" strictly below 50%? condition not met

Is the reported activity at 100 µM for "O=C(c1cc2c(-c3ccc(F)cc3)cccc2s1)N1CCSCC1" strictly below 50%? condition met

Is the reported activity at 100 µM for "O=C(c1cc2cc(O)ccc2[nH]1)N1CCOCC1" strictly below 50%? condition not met

Is the reported activity at 100 µM for "O=C(c1nc2ccccc2[nH]1)N1CCOCC1" strictly below 50%? condition not met

Is the reported activity at 100 µM for "Cc1ccc2[nH]c(C(=O)N3CCOCC3)cc2c1" strictly below 50%? condition not met

Is the reported activity at 100 µM for "Nc1ccc2sc(C(=O)N3CCOCC3)cc2c1" strictly below 50%? condition not met

---

Tested on: RGC-5 (rat ganglion cell-5)
Test: Retinal neuron protection under necroptosis inducing (TCZ; TNFα+cycloheximide+zVAD) condition, LDH assay
Assay type: cell-based
Settings: RGC-5, TCZ 15 hours, compound 20 μM, DMSO control = 100%
Measurement kind: Death of retinal nerve cell (%)
Reply with the number, then its unit.

Completed entries (count: 5):
O=C(c1nc2cc(Br)ccc2[nH]1)N1CCOCC1; 81.1 ± 15.2%
O=C(c1cc2c(Br)cncc2s1)N1CCOCC1; 79.6 ± 3.2%
O=C(c1cc2cccc(-c3ccc(F)cc3)c2s1)N1CCOCC1; 77.8 ± 9.6%
COc1ccc2cc(C(=O)N3CCOCC3)sc2c1; 71.6 ± 9.1%
COc1ccc2oc(C(=O)N3CCOCC3)cc2c1; 75.9 ± 15.1%

What value of Death of retinal nerve cell (%) has been reported for the following compound? "Fc1ccc(-c2cccc3sc(CN4CCOCC4)cc23)cc1" 63.2 ± 3.9%

What value of Death of retinal nerve cell (%) has been reported for the following compound? "Cc1ccc2cc(C(=O)N3CCOCC3)oc2c1" 86.1 ± 1.3%

What value of Death of retinal nerve cell (%) has been reported for the following compound? "O=C(c1cc2ccccc2o1)N1CCOCC1" 72.6 ± 6.8%

What value of Death of retinal nerve cell (%) has been reported for the following compound? "COc1ccc2[nH]c(C(=O)N3CCOCC3)cc2c1" 69.5 ± 7.4%

What value of Death of retinal nerve cell (%) has been reported for the following compound? "Cc1ccc2[nH]c(C(=O)N3CCOCC3)nc2c1" 71.2 ± 7.0%

What value of Death of retinal nerve cell (%) has been reported for the following compound? "O=C(c1cc2cccc(Br)c2s1)N1CCOCC1" 78.4 ± 6.5%

What value of Death of retinal nerve cell (%) has been reported for the following compound? "O=C(c1cc2c(-c3ccc(F)cc3)cccc2s1)N1CCCC1" 89.2 ± 8.2%

What value of Death of retinal nerve cell (%) has been reported for the following compound? "O=C(c1cc2c(Br)cnc(Cl)c2s1)N1CCOCC1" 79.3 ± 3.2%

// data source = patent US10501473B2
